experiment: in vivo; conditions: male, Wistar Han, rat, in vivo; day 70; single IM Example 43A 60 mg/kg; read-out: Mean concentration of Example 43A
Metric: concentration at 70 day (ng/mL)
Express it in ng/mL; write the number only.

**Q:** What value of concentration at 70 day has been reported for the following compound? C#C[C@]1(COP(=O)(N[C@@H](Cc2ccccc2)C(=O)OCCCCCCCCCCCCCCCCCCCC)Oc2ccccc2)O[C@@H](n2cnc3c(N)nc(F)nc32)C[C@@H]1O (single isomer, unassigned) [Example 43A]
**A:** 13.1

---

Experiment: in vivo
Details: male, Wistar Han, rat, in vivo; day 21; single IM Example 18A 54 mg/kg; read-out: Mean concentration of Example 18A
Excerpt: General Protocol for Prodrugs Rat PK Studies Conducted at ChemPartner, China A total of three naïve male Wistar Han rats, 200-250 g, were received from Beijing VR Laboratory Animal Co. LTD. Following an acclimation period, the animals were assigned to the study based on acceptable health as determined by a staff veterinarian and catheter patency. Fasting of the animals before or after dosing was not required. […]
Metric: concentration at 21 day

**Q:** What value of concentration at 21 day has been reported for the following compound? C#C[C@]1(COP(=O)(N[C@@H](Cc2ccccc2)C(=O)OCCCCCCCCCCCCCC)Oc2ccccc2)O[C@@H](n2cnc3c(N)nc(F)nc32)C[C@@H]1O (single isomer, unassigned) [Example 18A]
**A:** 0.947 ng/mL
